System: Venturia inaequalis
Test: Venturia test (apple)/protective
Assay type: in vivo
Conditions: apple plants, protective spray, active compound concentration of 10 ppm, evaluation 12 days after inoculation
measurement.label: Efficacy in %, based on the untreated control (%)
Numbers only here, please. The scale is %.

{"columns": ["molecule", "assay.result"],
 "data": [
  ["CN(C)S(=O)(=O)n1c(C#N)nc2cc3c(cc21)OC(F)(F)C(F)(F)O3", 43],
  ["N#Cc1nc2cc3c(cc2n1S(=O)(=O)c1cccs1)OC(F)(F)C(F)(F)O3 [drawing 353]", 87],
  ["CN(C)OS(=O)n1c(C#N)nc2cc3c(cc21)OC(F)(F)O3 (stereo not drawn) [drawing 350]", 0],
  ["CN(C)OS(=O)n1c(C#N)nc2cc3c(cc21)OC(F)(F)C(F)(F)O3 (stereo not drawn)", 43],
  ["Cc1noc(C)c1S(=O)(=O)n1c(C#N)nc2cc3c(cc21)OC(F)(F)C(F)(F)O3 [drawing 352]", 58]
]}

Problem: Dear colleague, I am looking for the recorded Efficacy in %, based on the untreated control of the following molecule: Cc1noc(C)c1S(=O)(=O)n1c(C#N)nc2cc3c(cc21)OC(F)(F)O3 [drawing 351]
Solution: 81

Data origin: patent US20020026059A1
